Each entry below carries its recorded TGI.
# System: K-562 leukemia
# PROCEDURE_TEXT: NCI tumour cell line growth inhibition, 48 h

COMPOUND	TESTED_TARGET	TGI
O=C(C(=O)c1cc(-c2ccccc2)nc2ccc3ccccc3c12)c1ccccc1	K-562 leukemia	> 100 µM
CC(=O)Nc1cccc2[nH]c3ccccc3c(=O)c12	K-562 leukemia	> 100 µM
Clc1ccc(Cc2nc3cc(Cl)c(Cl)cc3n2CC2CCCN3CCCCC23)cc1Cl (centres undefined)	K-562 leukemia	> 100 µM
C=C(C)[C@@H]1/C=C(/C(C)C)CC[C@@]2(C)OC2CC[C@H](C)CC1=O (some centres undefined)	K-562 leukemia	58.6 µM

src = PubChem BioAssay (NCI)
